Biological target: GMP synthase [glutamine-hydrolyzing] (Homo sapiens) (UniProt P49915)
Sequence (P49915 whole entry): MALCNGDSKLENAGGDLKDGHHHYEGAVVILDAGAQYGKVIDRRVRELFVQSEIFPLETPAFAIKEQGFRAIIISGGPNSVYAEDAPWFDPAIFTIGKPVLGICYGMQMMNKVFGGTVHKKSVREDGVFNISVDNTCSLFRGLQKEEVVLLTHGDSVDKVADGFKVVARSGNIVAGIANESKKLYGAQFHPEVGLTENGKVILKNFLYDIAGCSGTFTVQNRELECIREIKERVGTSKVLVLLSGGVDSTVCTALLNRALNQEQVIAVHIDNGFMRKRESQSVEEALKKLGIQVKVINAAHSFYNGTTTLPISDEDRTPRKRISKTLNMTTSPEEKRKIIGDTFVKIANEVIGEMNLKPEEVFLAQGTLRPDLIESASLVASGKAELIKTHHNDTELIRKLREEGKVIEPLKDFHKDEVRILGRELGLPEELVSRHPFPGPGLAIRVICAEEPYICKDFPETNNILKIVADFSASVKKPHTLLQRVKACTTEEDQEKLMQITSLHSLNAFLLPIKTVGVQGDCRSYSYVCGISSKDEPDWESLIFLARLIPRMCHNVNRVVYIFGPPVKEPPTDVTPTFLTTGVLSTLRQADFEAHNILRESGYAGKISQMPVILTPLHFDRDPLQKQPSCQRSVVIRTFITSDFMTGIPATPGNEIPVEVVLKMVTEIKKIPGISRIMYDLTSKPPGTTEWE
Assay: Inhibition of GMPS in human A3.01 cells at 50 uM
Assay type: cell-based
quantity.name: inhibition (%)
Write the number in % without appending the unit.

- Oc1c(Oc2ccc(Br)cc2Br)cc(Br)c(Br)c1Br: 71
- Oc1c(Br)cc(Br)cc1Oc1c(Br)cc(Br)c(Br)c1O: 70
- Oc1cc(Br)c(Br)c(Br)c1Oc1cc(Br)cc(Br)c1O: 89

Asked: Any idea what inhibition was measured for Oc1cc(Br)cc(Br)c1Oc1ccc(Br)cc1Br ?
Given back: 56

Asked: Could you tell me which inhibition is on file for Oc1c(Br)cc(Br)cc1Oc1c(O)c(Br)c(Br)c(Br)c1Br ?
Given back: 96

Asked: For the compound shown here, Oc1cc(Br)c(Br)c(Br)c1Oc1ccc(Br)cc1Br , give the reported inhibition.
Given back: 99
